System: Yap1 mRNA
EXPERIMENT: Dose-dependent inhibition of human Yap1 in A-431 cells (Example 8, 10,000 cells per well, RTS4814)
Format: cell-based
TEST PARAMETERS: 2000.00 nM; A-431 cells, 10,000 cells per well, free uptake, approximately 48 hours, RTS4814
Strand notation (5' to 3'): a small letter for the sugar, then the base; units joined by * are phosphorothioate-linked, units joined directly phosphodiester-linked; [ ] holds rarer units or linkages, { } end groups; capitals alone tell only the bases. k = constrained ethyl (cEt); [5mC] = 5-methylcytosine; d = 2'-deoxy (DNA)
Outcome: y for Yap1 mRNA, % UTC of at least 6 % UTC; n for anything lower.

Answered examples (6):
1076464 (k[5mC]*kA*kT*dA*dT*dA*d[5mC]*dA*dA*dT*dT*d[5mC]*dT*kG*k[5mC]*k[5mC]; antisense) [compound 1076464]
n
1074414 (kA*kA*k[5mC]*dT*dG*dT*dG*dA*dA*dA*dG*dA*dG*kG*kT*k[5mC]; antisense) [compound 1074414]
y
1076465 (kG*k[5mC]*kT*dT*dA*dA*dG*dG*dA*dA*dT*dA*dT*kA*k[5mC]*kA; antisense) [compound 1076465]
y
1074418 (kT*kT*k[5mC]*dT*dT*dT*dA*dG*dA*dG*d[5mC]*d[5mC]*dA*kA*k[5mC]*kT; antisense) [compound 1074418]
n
1076427 (k[5mC]*kA*kA*dA*dT*dT*dT*dA*d[5mC]*dT*dG*dA*dT*k[5mC]*kT*k[5mC]; antisense) [compound 1076427]
n
1076481 (k[5mC]*kT*kA*dA*dG*dT*dA*dA*dG*dG*dT*dT*dT*k[5mC]*k[5mC]*k[5mC]) [compound 1076481]
n

Determine whether measured Yap1 mRNA, % UTC meets or exceeds 6 % UTC for 1074447 (kA*kA*kT*dG*dA*dT*dA*dG*d[5mC]*dA*d[5mC]*dT*dA*kG*kG*kA; antisense) [compound 1074447] n

Determine whether measured Yap1 mRNA, % UTC meets or exceeds 6 % UTC for 1076299 (k[5mC]*kG*kT*dT*dA*dT*dA*dA*dA*dG*dA*d[5mC]*d[5mC]*k[5mC]*kA*kA; antisense) [compound 1076299] n

Determine whether measured Yap1 mRNA, % UTC meets or exceeds 6 % UTC for 1075146 (kG*kT*kA*dT*dT*dA*dA*dG*dG*dG*dA*dT*dT*kT*kT*k[5mC]; antisense) [compound 1075146] y

The origin of these recorded values is patent US11214803B2.
